Every entry's value here was drawn from PubChem BioAssay.

- protocol-text: small-molecule microarray binders of probe aNog, primary screen, biochemical, biotinylated probe, 635/667 nm fluorescence (AID 1115);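 also: probe is biotinylated aNog protein used at 0.15 µg/mL for 1 h at 4 C; z-score combines 667 nm fluorescence of each spot with its signal to noise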
- test-context: higher = more signal
Below: a set of entries, each annotated with reported composite z-score.

These recorded examples may help you get a feel for the data.
compound-string	endpoint-result
COCCOC(=O)N1C(=O)[C@@]2(c3cc(C#CC4(O)CCCCCC4)ccc31)[C@H](c1ccccc1OCCO)N1[C@H](c3ccccc3)[C@H](c3ccccc3)OC(=O)[C@H]1[C@@H]2C(=O)Nc1nc2ccccc2s1	0.182
O=C(NC1CC1)[C@@H]1c2ccccc2C(=O)N(Cc2ccccc2C(F)(F)F)[C@H]1c1ccc(CO)cc1	0.0272
COCCOC(=O)N1C(=O)[C@@]2(c3cc(C#CCNC(N)=O)ccc31)[C@H](c1ccccc1OCCO)N1[C@H](c3ccccc3)[C@H](c3ccccc3)OC(=O)[C@H]1[C@@H]2C(=O)Nc1nc2ccccc2s1	0.561
CCOC(=O)C[C@H]1[C@H](OC(=O)Cc2ccc3c(c2)OCO3)[C@@H](NC(=O)c2ccc3ccccc3c2)c2cc(OCCCO)ccc2N1C(=O)c1ccc2ccccc2n1	-0.171

Inquiry: Given CC(=O)NCCCC[C@@H]1NC(=O)[C@@H]2C[C@H](C(=O)O)[C@H](c3cccc(OCCO)c3)N2C1=O , respond with its composite z-score.
Reply text: -0.37

Inquiry: Given [N-]=[N+]=NCc1ccccc1C[C@@]1(C(=O)O)N=C(c2ccc(OCCCO)cc2)O[C@@H]1c1ccccc1 , respond with its composite z-score.
Reply text: 0.767

---

- system-tested: Torsin-1A (Homo sapiens)
- protocol-text: torsin A binders from cell lysate, primary screen, small-molecule microarray, wild-type, 635/667 nm (AID 1149)
- test-context: COS7 hTOR1A-WT lysate, 635 nm fluorescence, higher = more signal
Below: a set of entries, each annotated with reported composite z-score.
A bare number is all that is needed in reply.

These recorded examples may help you get a feel for the data.
compound-string	system-tested	composite z-score
COc1ccc(/C=C/C(=O)c2cccc(OCC(=O)OC(C)(C)C)c2)cc1	Torsin-1A (Homo sapiens)	0.349
CCOC(=O)C[C@H]1[C@H](OC(=O)Cc2ccc3c(c2)OCO3)[C@@H](NC(=O)c2ccc3ccccc3c2)c2cc(OCCCO)ccc2N1C(=O)c1ccc2ccccc2n1	Torsin-1A (Homo sapiens)	0.0253
O=C(NCc1ccccc1)[C@@H]1c2ccccc2C(=O)N(Cc2ccccc2Cl)[C@H]1c1ccc(CO)cc1	Torsin-1A (Homo sapiens)	1.1

Below: the item to evaluate.
Inquiry: Given COCCOC(=O)N1C(=O)[C@@]2(c3cc(C#CCCO)ccc31)[C@H](c1ccccc1OCCO)N1[C@H](c3ccccc3)[C@H](c3ccccc3)OC(=O)[C@H]1[C@@H]2C(=O)NC[C@H](O)c1ccccc1 , respond with its composite z-score.
Reply text: 1.94

---

- protocol-text: HepG2 cell viability effects, profiling panel, calcein-AM fluorescence, 48 h, basal (AID 1164); also: test concentration not given here
- test-context: higher = more signal
Below: a set of entries, each annotated with reported z-score.
A bare number is all that is needed in reply.

> print(dat)
                                   molecule  recorded.metric  endpoint.result
1  CC(C)N1C(=O)c2ccccc2[C@@H](C(=O)NCc2ccccc2)[C@@H]1c1ccc(CO)cc1          z-score           -0.179
2  CC(C)C(=C=CC[C@H](O)c1ccc(OCCO)cc1)C[C@H](O)COCc1ccccc1          z-score           -0.822
3  O=C1c2ccccc2C(=O)c2cc([C@H]3Oc4ccccc4S(=O)(=O)N4CCC[C@@H]34)ccc21          z-score            0.158

Inquiry: Given COc1ccc([Si](C)(C)[C@@H]2[C@@H](CC(=O)N3CCC[C@H]3CO)O[C@]3(C(=O)N(Cc4ccc(N5CCC5=O)cc4)c4ccccc43)[C@H]2C)cc1 , respond with its z-score.
Reply text: -3.27

Inquiry: Given CO[C@H]1O[C@H](CO)[C@@H](OC(=O)Nc2ccccc2)[C@H](OC(=O)Nc2ccccc2-c2ccccc2)[C@H]1OC(=O)Nc1ccccc1-c1ccccc1 , respond with its z-score.
Reply text: -4.94

Inquiry: Given CCCCCN1CC=CC23O[C@@H]4/C=C\CCC(C)OC(=O)C4[C@H]2C(=O)N(CCCO)[C@@H]3C1=O (some centres not stated) , respond with its z-score.
Reply text: 0.495

Inquiry: Given CC(C)C(CO)N1C(=O)[C@@H]2[C@H]3C(=O)OCC=C[C@H]3OC23C=CCN(Cc2ccccc2)C(=O)[C@@H]13 (some centres not stated) , respond with its z-score.
Reply text: -0.384
